Where these numbers come from: patent US4939156A

system: Newcastle disease virus (NDV) Miyadera strain; assay: microbe, parasite or virus in culture; type: cell-based; conditions: avian paramyxovirus 1, 48 h, read-out: Inhibitory Concentration (IC50) which inhibited by 50% the denaturation of Virus No. 2 infested HeLa-Y cell
PROPERTY: IC50

Below: 5 molecules and their reported IC50.
- MOLECULE: "CN1C(=O)[C@@H]2[C@H](N(C)C1=O)C(C)(C)C2(C)C (relative stereo) [TI-27 Substance]"
  MEASURED ON: "Newcastle disease virus (NDV) Miyadera strain"
  TEST RESULT: "> 250 µg/mL"
- MOLECULE: "CCN1C(=O)NC(=O)C2(F)C1C(C)(C)C2(C)C (stereo not shown) [TI-62 Substance]"
  MEASURED ON: "Newcastle disease virus (NDV) Miyadera strain"
  TEST RESULT: "> 250 µg/mL"
- MOLECULE: "CN1C(=O)NC2C(C)(C)C(C)(C)C2(F)C1=O (stereo not shown) [TI-61 Substance]"
  MEASURED ON: "Newcastle disease virus (NDV) Miyadera strain"
  TEST RESULT: "> 125 µg/mL"
- MOLECULE: "CCN1C(=O)N(CC)C2C(C)(C)C(C)(C)C2(F)C1=O (stereo not shown) [TI-65 Substance]"
  MEASURED ON: "Newcastle disease virus (NDV) Miyadera strain"
  TEST RESULT: "> 250 µg/mL"
- MOLECULE: "CCN1C(=O)[C@@H]2[C@H](N(CC)C1=O)C(C)(C)C2(C)C (relative stereo) [TI-16 Substance]"
  MEASURED ON: "Newcastle disease virus (NDV) Miyadera strain"
  TEST RESULT: "> 250 µg/mL"

List reported IC50 for each of these molecules:
1. CC1(C)O[C@@H]2[C@H](O1)[C@@H](CO)O[C@H]2N1C(=O)NC(=O)C2C1C(C)(C)C2(C)C (stereo partly shown) [TI-28 Substance]
2. CC1(C)C2N(Cc3ccccc3)C(=O)N(Cc3ccccc3)C(=O)C2(F)C1(C)C (stereo not shown) [TI-66 Substance]

Result block:
1. > 1000 µg/mL
2. > 25 µg/mL
